Target: Histone deacetylase 3 (Homo sapiens)
Experiment: HDAC3 deacetylase inhibitors, primary screen, biochemical, fluorescence, cell-free homogeneous (AID 2718)
Settings: recombinant HDAC3, fluorogenic peptide/trypsin coupled, at 8.3 µM, stronger effect = higher value
Screen size: about 320,000 compounds; about 480 (0.15%) were called active. About 1% were inconclusive and are not listed. Shown is part of a subset that was picked to be rich in actives.
measurement-label: inhibition (%)
A number alone suffices; assume %.

compound	experimental-value
C=CC[C@@H](CC(=O)N[C@H](CO)Cc1ccccc1)C(=O)N[C@@H](COC(=O)[C@@H](CC=C)Cc1ccc(F)cc1)Cc1c[nH]c2ccccc12	0.653
C=CCC[C@@H](Cc1ccc(F)cc1)C(=O)OC[C@@H](C)NC(=O)[C@H](CC=C)CC(=O)N(CCO)Cc1ccccc1	2.58
C=CC[C@@H](CC(=O)NCCO)C(=O)N[C@H](C)COC(=O)[C@@H](CC=C)CC(=O)OC(C)(C)C	-0.677
C=CCC[C@H](Cc1ccc(F)cc1)C(=O)OC[C@@H](Cc1c[nH]c2ccccc12)NC(=O)[C@H](CC=C)CC(=O)N[C@H](CO)Cc1ccccc1	6.12
C=CCC[C@H](Cc1ccc(F)cc1)C(=O)OC[C@H](C)NC(=O)[C@H](CC=C)CC(=O)N(CCO)Cc1ccccc1	30.2
CCOC(=O)C1Cn2c(nc3c(c2=O)C(C)(CC)Cc2ccccc2-3)S1 (configuration not stated)	-2.26

Kindly review the next compound as well.
Tell me the measured inhibition of C=CC[C@@H](CC(=O)N[C@@H](CO)Cc1ccccc1)C(=O)N[C@H](COC(=O)[C@H](CC=C)CC(=O)OC(C)(C)C)Cc1ccccc1 , please. 7.81

Cited source for all entries: PubChem BioAssay AID2718
